# Test system: HCT-116
# test_description: Antiproliferative activity against human HCT-116 cells overexpressing MDM2 assessed as cell growth inhibition incubated at 10 uM for 72 hrs by CCK-8 assay relative to control
# Assay type: functional
Decision: inhibition at 10 µM >= 30% yields t, all other cases yield f.

# bool: inhibition at 10 µM of O=C(c1ccc(Cl)cc1)C(Cc1ccccc1Cl)C(=O)c1cc(F)ccc1F (centres undefined) >= 30% f

# bool: inhibition at 10 µM of O=C(c1ccc(Cl)cc1)C(Cc1cccc(Cl)c1)C(=O)c1cc(F)ccc1F (centres undefined) >= 30% t

# bool: inhibition at 10 µM of O=C(c1ccc(Cl)cc1)C(Cc1cc2ccccc2cn1)C(=O)c1cc(F)ccc1F (centres undefined) >= 30% t

----------
For each record, write down the corresponding Ki.
# assay_system: UniProt:Q00987

Below, each entry is followed by its recorded Ki result.
compound	Ki
O=C(CCC(=O)N(c1ccc(Cl)cc1)C(C(=O)c1ccc(Cl)cc1)c1ccc(F)cc1Cl)NCCN1CCOCC1 (stereo not drawn)	0.56 µM
O=C(O)CCCC(=O)N(c1ccc(Cl)cc1)C(C(=O)c1ccc(Cl)cc1)c1ccc(F)cc1Cl (stereo not drawn)	0.78 µM
O=C(c1ccc(Cl)cc1)C(Nc1ccc(Cl)cc1)c1ccc(F)cc1Cl (stereo not drawn)	0.91 µM

Hello, I would appreciate it if you could give Ki for each entry below.
1. O=C(c1ccc(Br)cc1)C(Nc1ccc(Cl)cc1)c1ccc(Cl)cc1 (stereo not drawn)
2. O=C(c1ccc(Cl)cc1)C(Nc1ccc(Cl)c(Cl)c1)c1ccc(Cl)c(Cl)c1 (stereo not drawn)
3. CCN1CCN(C(=O)CCC(=O)N(c2ccc(Cl)cc2)C(C(=O)c2ccc(Cl)cc2)c2ccc(F)cc2Cl)CC1 (stereo not drawn)
4. COc1ccc(NC(C(=O)c2ccc(Cl)cc2)c2ccc(F)cc2Cl)cc1 (stereo not drawn)
5. O=C(c1ccccc1)C(Nc1ccccc1)c1ccccc1 (stereo not drawn)

1. 13.2 µM
2. 4.29 µM
3. 0.69 µM
4. 27.8 µM
5. 38.2 µM

----------
For each record, write down the corresponding IC50 at 72 h.
# test_description: Cytotoxicity against human BEAS-2B cells incubated for 72 hrs by CCK-8 assay
# Type: toxicity, cell-based
Numbers only, in µM.

compound	reading
CN(C)C1CCN(C(=O)CCC(=O)N(c2ccc(Cl)cc2)C(C(=O)c2ccc(Cl)cc2)c2ccc(F)cc2Cl)CC1 (configuration not stated)	16.3

# ---- query compound ----
Retrieve IC50 at 72 h measured for O=C(c1ccc(Cl)cc1)C(c1ccc(F)cc1Cl)N(C(=O)CCC(=O)N1CCNCC1)c1ccc(Cl)cc1 (configuration not stated) and print it. 18

----------
// endpoint pKi / system E3 ubiquitin-protein ligase Mdm2 (Homo sapiens, UniProt Q00987)
Answers are plain numbers, as −log10 of the molar value.

compound	assay_system	pKi
O=C(O)CCC(=O)N(c1ccc(Cl)cc1)C(C(=O)c1ccc(Cl)cc1)c1ccc(F)cc1Cl (centres undefined)	E3 ubiquitin-protein ligase Mdm2 (Homo sapiens, UniProt Q00987)	5.97
CN(C)C1CCN(C(=O)CCC(=O)N(c2ccc(Cl)cc2)C(C(=O)c2ccc(Cl)cc2)c2ccc(F)cc2Cl)CC1 (centres undefined)	E3 ubiquitin-protein ligase Mdm2 (Homo sapiens, UniProt Q00987)	6.55
O=C(c1ccc(Cl)cc1)C(Cc1cccc(F)c1)C(=O)c1cc(F)ccc1F (centres undefined)	E3 ubiquitin-protein ligase Mdm2 (Homo sapiens, UniProt Q00987)	4.89
O=C(c1ccc(F)cc1)C(Nc1ccc(Cl)cc1)c1ccc(Cl)cc1 (centres undefined)	E3 ubiquitin-protein ligase Mdm2 (Homo sapiens, UniProt Q00987)	4.91

Hello, I would appreciate it if you could give pKi for each entry below.
1. O=C(c1ccc(Cl)cc1)C(Nc1ccc(Cl)cc1)c1cc(F)cc(F)c1 (centres undefined)
2. O=C(c1ccc(Cl)cc1)C(Nc1ccc(Cl)cc1)c1cc(F)ccc1F (centres undefined)
3. Cc1cc(Cl)cc(NC(C(=O)c2ccc(F)cc2)c2ccc(F)c(Cl)c2)c1 (centres undefined)
4. O=C(c1ccc(Cl)cc1)C(Cc1ccccc1Cl)C(=O)c1cc(F)ccc1F (centres undefined)

1. 4.61
2. 4.83
3. 4.71
4. 4.82

----------
# assay_system: Protein Mdm4 (Homo sapiens)
# Sequence (O15151 whole entry): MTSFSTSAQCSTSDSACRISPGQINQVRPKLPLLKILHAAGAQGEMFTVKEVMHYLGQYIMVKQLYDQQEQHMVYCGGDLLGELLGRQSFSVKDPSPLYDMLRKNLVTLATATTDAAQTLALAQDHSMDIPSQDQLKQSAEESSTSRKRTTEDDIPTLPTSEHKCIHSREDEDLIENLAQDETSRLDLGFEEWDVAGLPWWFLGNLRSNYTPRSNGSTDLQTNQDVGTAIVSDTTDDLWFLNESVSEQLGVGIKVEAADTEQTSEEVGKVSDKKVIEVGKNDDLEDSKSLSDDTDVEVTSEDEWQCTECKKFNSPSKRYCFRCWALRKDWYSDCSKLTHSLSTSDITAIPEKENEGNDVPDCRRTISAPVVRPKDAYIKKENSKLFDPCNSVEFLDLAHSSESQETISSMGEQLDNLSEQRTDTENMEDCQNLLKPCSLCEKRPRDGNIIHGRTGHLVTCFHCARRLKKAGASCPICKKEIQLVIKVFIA
For each record, write down the corresponding pKi.
Answers are plain numbers, as −log10 of the molar value.

Below, each entry is followed by its recorded pKi result.
compound	pKi
O=C(c1ccc(Cl)cc1)C(c1ccc(F)cc1Cl)N(C(=O)CCC(=O)N1CCN(CCO)CC1)c1ccc(Cl)cc1 (configuration not stated)	4.94
COC(=O)c1ccc(C(=O)N(c2ccc(Cl)cc2)C(C(=O)c2ccc(Cl)cc2)c2ccc(F)cc2Cl)cc1 (configuration not stated)	4.89
CCOc1cc(/C=C2\C(=O)N(c3ccccc3)N=C2C)cc(Cl)c1OCC(=O)OC	6.11

Hello, I would appreciate it if you could give pKi for each entry below.
1. O=C(CCC(=O)N(c1ccc(Cl)cc1)C(C(=O)c1ccc(Cl)cc1)c1ccc(F)cc1Cl)NCCN1CCOCC1 (configuration not stated)
2. COC(=O)c1ccc(NC(=O)CCC(=O)N(c2ccc(Cl)cc2)C(C(=O)c2ccc(Cl)cc2)c2ccc(F)cc2Cl)cc1 (configuration not stated)
3. CC(C)(C)OC(=O)N1CCN(C(=O)CCC(=O)N(c2ccc(Cl)cc2)C(C(=O)c2ccc(Cl)cc2)c2ccc(F)cc2Cl)CC1 (configuration not stated)
4. CC(=O)N1CCN(C(=O)CCC(=O)N(c2ccc(Cl)cc2)C(C(=O)c2ccc(Cl)cc2)c2ccc(F)cc2Cl)CC1 (configuration not stated)
5. CN(C)C1CCN(C(=O)CCC(=O)N(c2ccc(Cl)cc2)C(C(=O)c2ccc(Cl)cc2)c2ccc(F)cc2Cl)CC1 (configuration not stated)
6. O=C(c1ccc(Cl)cc1)C(c1ccc(F)cc1Cl)N(C(=O)CCC(=O)N1CCNCC1)c1ccc(Cl)cc1 (configuration not stated)

4.88
4.54
4.43
5.13
5.46
5.61

Hello, I would appreciate it if you could give pKi for each entry below.
1. COc1ccc(S(=O)(=O)N(c2ccc(Cl)cc2)C(C(=O)c2ccc(Cl)cc2)c2ccc(F)cc2Cl)cc1 (configuration not stated)
2. CCN1CCN(C(=O)CCC(=O)N(c2ccc(Cl)cc2)C(C(=O)c2ccc(Cl)cc2)c2ccc(F)cc2Cl)CC1 (configuration not stated)
3. O=C(O)c1ccc(C(=O)N(c2ccc(Cl)cc2)C(C(=O)c2ccc(Cl)cc2)c2ccc(F)cc2Cl)cc1 (configuration not stated)

4.81
5.03
5.37

----------
# Tested on: SH-SY5Y
# test_description: Antiproliferative activity against human SH-SY5Y cells overexpressing MDMX assessed as cell growth inhibition incubated at 10 uM for 72 hrs by CCK-8 assay relative to control
# Type: functional
Decision: inhibition at 10 µM >= 20% yields fulfilled, all other cases yield not fulfilled.

compound	qualitative_label
O=C(c1ccccc1)C(Cc1ccccc1)C(=O)c1ccccc1	not fulfilled
O=C(c1ccc(Cl)cc1)C(Cc1cccc(C(F)(F)F)c1)C(=O)c1cc(F)ccc1F (centres undefined)	fulfilled
O=C(c1ccc(Cl)cc1)C(Cc1ccsc1)C(=O)c1cc(F)ccc1F (centres undefined)	not fulfilled
O=C(c1ccc(Cl)cc1)C(Cc1cccc(F)c1)C(=O)c1cc(F)ccc1F (centres undefined)	not fulfilled
O=C(c1ccc(Cl)cc1)C(Cc1ccc(Cl)cc1)C(=O)c1cc(F)ccc1F (centres undefined)	not fulfilled

# bool: inhibition at 10 µM of COc1cccc(CC(C(=O)c2ccc(Cl)cc2)C(=O)c2cc(F)ccc2F)c1 (centres undefined) >= 20% not fulfilled

# bool: inhibition at 10 µM of O=C(c1ccc(Cl)cc1)C(Cc1cc(Cl)cc(Cl)c1)C(=O)c1cc(F)ccc1F (centres undefined) >= 20% not fulfilled

# bool: inhibition at 10 µM of COc1ccc(C2=N[C@H](c3ccc(Cl)cc3)[C@H](c3ccc(Cl)cc3)N2C(=O)N2CCNC(=O)C2)c(OC(C)C)c1 >= 20% fulfilled

# bool: inhibition at 10 µM of O=C(c1ccc(Cl)cc1)C(Cc1ccc(-c2ccccc2)cc1)C(=O)c1cc(F)ccc1F (centres undefined) >= 20% not fulfilled

# bool: inhibition at 10 µM of Cc1cccc(CC(C(=O)c2ccc(Cl)cc2)C(=O)c2cc(F)ccc2F)c1 (centres undefined) >= 20% fulfilled

# bool: inhibition at 10 µM of O=C(c1ccc(Cl)cc1)C(Cc1ccccc1Cl)C(=O)c1cc(F)ccc1F (centres undefined) >= 20% fulfilled

# bool: inhibition at 10 µM of O=C(c1ccc(Cl)cc1)C(Cc1cccc(Cl)c1)C(=O)c1cc(F)ccc1F (centres undefined) >= 20% fulfilled

# bool: inhibition at 10 µM of O=C(c1ccc(Cl)cc1)C(Cc1cc2ccccc2cn1)C(=O)c1cc(F)ccc1F (centres undefined) >= 20% not fulfilled

----------
# test_description: Cytotoxicity against human LO2 cells incubated for 72 hrs by CCK-8 assay
# Type: toxicity, cell-based, L02
For each record, write down the corresponding IC50 at 72 h.
Mention the unit after the number when you answer.

molecule	reading
O=C(c1ccc(Cl)cc1)C(c1ccc(F)cc1Cl)N(C(=O)CCC(=O)N1CCNCC1)c1ccc(Cl)cc1 (configuration not stated)	15.9 µM

Retrieve IC50 at 72 h measured for CN(C)C1CCN(C(=O)CCC(=O)N(c2ccc(Cl)cc2)C(C(=O)c2ccc(Cl)cc2)c2ccc(F)cc2Cl)CC1 (configuration not stated) and print it. 12.7 µM
